- TARGET_OR_TEST_SYSTEM: recombinant full-length HSET (Homo sapiens)
- Construct: 5 nM full-length human N-terminal His-tag HSET; His-tag (N)
- PROTOCOL_NOTES: ADP-Glo HSET assay (3 μM ATP), microtubule-stimulated ATPase
- Format: biochemical
- DETAILS: ATP concentration of 150 μM; read-out: HSET IC50 at higher ATP concentration
MEASURED_ATTRIBUTE: IC50 (µM)
Your answer should be a plain number; it is taken to be in µM.

GET /values?readout=IC50&item= CCOC(=O)c1sc(NC(=O)CCNC(=O)c2cccc(C)c2)nc1C
7.1

---

- TARGET_OR_TEST_SYSTEM: recombinant full-length HSET (Homo sapiens, UniProt Q9BW19)
- Construct: 5 nM full-length human N-terminal His-tag HSET; His-tag (N)
- PROTOCOL_NOTES: ADP-Glo HSET assay (3 μM ATP), microtubule-stimulated ATPase
- Format: biochemical
- DETAILS: supplementary CSV; read-out: HSET ADP-Glo IC50
MEASURED_ATTRIBUTE: IC50

Quick check: IC50 of CCOC(=O)c1cnc(NC(=O)CCNC(=O)c2cccc(-c3noc(C)n3)c2)s1 [Compound 19] ?
> 4 µM

---

Here, each record is paired with measured LE data.
- TARGET_OR_TEST_SYSTEM: recombinant full-length HSET (Homo sapiens, UniProt Q9BW19)
- Construct: 5 nM full-length human N-terminal His-tag HSET; His-tag (N)
- Sequence (Q9BW19 1-673): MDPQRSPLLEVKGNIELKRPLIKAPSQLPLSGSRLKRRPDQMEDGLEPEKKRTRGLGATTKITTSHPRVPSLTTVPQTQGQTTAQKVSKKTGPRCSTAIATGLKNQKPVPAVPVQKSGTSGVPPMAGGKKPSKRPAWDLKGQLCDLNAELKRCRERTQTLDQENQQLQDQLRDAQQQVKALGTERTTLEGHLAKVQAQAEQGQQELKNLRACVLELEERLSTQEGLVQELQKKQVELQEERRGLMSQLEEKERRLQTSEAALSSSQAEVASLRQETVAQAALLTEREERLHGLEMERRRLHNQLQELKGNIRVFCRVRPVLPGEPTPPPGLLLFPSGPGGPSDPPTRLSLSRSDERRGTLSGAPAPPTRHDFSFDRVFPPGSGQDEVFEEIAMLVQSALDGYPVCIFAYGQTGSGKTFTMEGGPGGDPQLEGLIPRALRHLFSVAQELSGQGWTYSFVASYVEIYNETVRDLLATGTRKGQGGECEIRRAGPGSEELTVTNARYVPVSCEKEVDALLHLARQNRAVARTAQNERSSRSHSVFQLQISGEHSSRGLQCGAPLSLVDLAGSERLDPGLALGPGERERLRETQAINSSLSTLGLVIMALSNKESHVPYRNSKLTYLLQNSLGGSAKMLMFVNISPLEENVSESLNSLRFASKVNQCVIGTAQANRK
- PROTOCOL_NOTES: ADP-Glo HSET assay (3 μM ATP), microtubule-stimulated ATPase
- Assay type: biochemical
- DETAILS: LE = −1.4Log(IC50 [M])/number of non-hydrogen atoms (Table 1)

Look over these answered cases.
>  <COMPOUND>
CCOC(=O)c1sc(NC(=O)CCNC(=O)c2cccc(C)c2)nc1C [Compound 2]

>  <TARGET_OR_TEST_SYSTEM>
recombinant full-length HSET (Homo sapiens, UniProt Q9BW19)

>  <LE>
0.30

$$$$
>  <COMPOUND>
CCCc1cc(C(=O)N[C@H](Cc2ccc(-c3cccc(OC(F)(F)F)c3)nc2)C(=O)N[C@@H]2CCNC2)sc1C [Compound 1, reference compound]

>  <TARGET_OR_TEST_SYSTEM>
recombinant full-length HSET (Homo sapiens, UniProt Q9BW19)

>  <LE>
0.25

$$$$
>  <COMPOUND>
CCOC(=O)c1sc(NC(=O)CCNC(=O)c2cccc(-c3nc(C)no3)c2)nc1C [Compound 17]

>  <TARGET_OR_TEST_SYSTEM>
recombinant full-length HSET (Homo sapiens, UniProt Q9BW19)

>  <LE>
0.32

$$$$
>  <COMPOUND>
CCOC(=O)c1sc(NC(=O)CCNC(=O)c2cccc(-c3nnc(C)o3)c2)nc1C [Compound 16]

>  <TARGET_OR_TEST_SYSTEM>
recombinant full-length HSET (Homo sapiens, UniProt Q9BW19)

>  <LE>
0.3

$$$$
>  <COMPOUND>
CCOC(=O)c1sc(NC(=O)CCNC(=O)c2cccc(-c3nnn(C)n3)c2)nc1C [Compound 18]

>  <TARGET_OR_TEST_SYSTEM>
recombinant full-length HSET (Homo sapiens, UniProt Q9BW19)

>  <LE>
0.34

$$$$

Tell me reported LE for CCOC(=O)c1sc(NC(=O)CCNC(=O)c2cccc(OC)c2)nc1C [Compound 11] , tested with recombinant full-length HSET (Homo sapiens, UniProt Q9BW19).
0.28

Observed LE on recombinant full-length HSET (Homo sapiens, UniProt Q9BW19) for CCOC(=O)c1sc(NC(=O)CCNC(=O)c2cccc(-c3noc(C)n3)c2)nc1C [Compound 13] , please.
0.33

# returns recorded LE (system: recombinant full-length HSET (Homo sapiens, UniProt Q9BW19)) for CCOC(=O)c1sc(NC(=O)CCNC(=O)c2cccc(-c3noc(CC)n3)c2)nc1C [Compound 14]
0.25

Form field: LE recorded for CCOC(=O)c1sc(NC(=O)CCNC(=O)c2ccc(C)cc2)nc1C [Compound 4] with recombinant full-length HSET (Homo sapiens, UniProt Q9BW19) (enter value)
0.29

Record lookup: for recombinant full-length HSET (Homo sapiens, UniProt Q9BW19), what LE belongs to CCOC(=O)c1sc(NC(=O)CCNC(=O)c2cccc(CC)c2)nc1C [Compound 5] ?
0.29

Record CCOC(=O)c1sc(NC(=O)CCNC(=O)c2cccc(-c3ccccc3)c2)nc1C [Compound 12] : what is its LE with recombinant full-length HSET (Homo sapiens, UniProt Q9BW19)?
0.25

---

- TARGET_OR_TEST_SYSTEM: recombinant full-length HSET (Homo sapiens, UniProt Q9BW19)
- Construct: 5 nM full-length human N-terminal His-tag HSET; His-tag (N)
- PROTOCOL_NOTES: ADP-Glo HSET assay (3 μM ATP), microtubule-stimulated ATPase
- Format: biochemical
- DETAILS: LLE = −Log(IC50 [M]) – cLogP (MoKa) (Table 1)
This listing pairs compounds with measured LLE.
Answer with a bare number; do not write a unit.

Past entries and their recorded results:
>  <COMPOUND>
CCOC(=O)c1sc(NC(=O)CCNC(=O)c2cccc(-c3nnc(C)o3)c2)nc1C

>  <TARGET_OR_TEST_SYSTEM>
recombinant full-length HSET (Homo sapiens, UniProt Q9BW19)

>  <MEASURED_ATTRIBUTE>
LLE

>  <OBSERVED>
4.4

$$$$
>  <COMPOUND>
CCOC(=O)c1sc(NC(=O)CCNC(=O)c2cccc(C)c2)nc1C

>  <TARGET_OR_TEST_SYSTEM>
recombinant full-length HSET (Homo sapiens, UniProt Q9BW19)

>  <MEASURED_ATTRIBUTE>
LLE

>  <OBSERVED>
2.5

$$$$
>  <COMPOUND>
CCOC(=O)c1sc(NC(=O)CCNC(=O)c2cccc(-c3noc(C)n3)c2)nc1C

>  <TARGET_OR_TEST_SYSTEM>
recombinant full-length HSET (Homo sapiens, UniProt Q9BW19)

>  <MEASURED_ATTRIBUTE>
LLE

>  <OBSERVED>
4.6

$$$$
>  <COMPOUND>
CCOC(=O)c1sc(NC(=O)CCNC(=O)c2ccc(C)cc2)nc1C

>  <TARGET_OR_TEST_SYSTEM>
recombinant full-length HSET (Homo sapiens, UniProt Q9BW19)

>  <MEASURED_ATTRIBUTE>
LLE

>  <OBSERVED>
2.2

$$$$
>  <COMPOUND>
CCOC(=O)c1sc(NC(=O)CCNC(=O)c2cccc(-c3nnn(C)n3)c2)nc1C

>  <TARGET_OR_TEST_SYSTEM>
recombinant full-length HSET (Homo sapiens, UniProt Q9BW19)

>  <MEASURED_ATTRIBUTE>
LLE

>  <OBSERVED>
5.4

$$$$

Which LLE reading was recorded for the compound CCOC(=O)c1sc(NC(=O)CCNC(=O)c2cccc(CC)c2)nc1C ?
2.2

Entry CCOC(=O)c1sc(NC(=O)CCNC(=O)c2cccc(-c3nc(C)no3)c2)nc1C : reported LLE = ?
4.3

Endpoint output: LLE of CCOC(=O)c1sc(NC(=O)CCNC(=O)c2cccc(OC)c2)nc1C . Value?
2.8

So what's the measured LLE for this one? CCOC(=O)c1sc(NC(=O)CCNC(=O)c2cccc(-c3ccccc3)c2)nc1C
1.2

For the compound shown here, CCCc1cc(C(=O)N[C@H](Cc2ccc(-c3cccc(OC(F)(F)F)c3)nc2)C(=O)N[C@@H]2CCNC2)sc1C [Compound 1, reference compound] , give the reported LLE.
1.5

What does the record list as LLE for CCOC(=O)c1sc(NC(=O)CCNC(=O)c2cccc(-c3noc(CC)n3)c2)nc1C ?
2.8
